system: ASPC-1 tumor-bearing mice; assay: Biodistribution of radionuclide labeled complexes in ASPC-1 tumor-bearing mice; format: in vivo, BALB/c nude mice; conditions: Stomach, 24 h
Measured quantity: % ID/g (24 h) Stomach (% ID/g)

[[record]]
compound = "COc1cccc(OC)c1-c1cc(C(=O)NC2(C(=O)O)C3CC4CC(C3)CC2C4)nn1-c1ccc(C(=O)N(C)CCCN(C)CCCN(C)C(=O)CN2CCN(CC(=O)[O-])CCN(CC(=O)[O-])CCN(CC(=O)[O-])CC2)cc1C(C)C.[177Lu+3] (stereo not drawn) [^177Lu-C-2, reference compound]"
reported = 0.15


a = COc1cccc(OC)c1-c1cc(C(=O)NC2(C(=O)O)C3CC4CC(C3)CC2C4)nn1-c1ccc(NCCOCCOCCNC(=O)CN2CCN(CC(=O)[O-])CCN(CC(=O)[O-])CCN(CC(=O)[O-])CC2)cc1C(C)C.[177Lu+3] (stereo not drawn) [^177Lu-I-10]
b = COc1cccc(OC)c1-c1cc(C(=O)NC2(C(=O)O)C3CC4CC(C3)CC2C4)nn1-c1ccc(OCCCN(C)CCCN(C)C(=O)CN2CCN(CC(=O)[O-])CCN(CC(=O)[O-])CCN(CC(=O)[O-])CC2)cc1C(C)C.[177Lu+3] (stereo not drawn) [^177Lu-I-7]
Request: Sorting by % ID/g (24 h) Stomach in descending order, would a or b appear first? // caller expects the label of the chosen entry
Response: b
(b: 0.21 % ID/g, a: 0.1 % ID/g)
